Value source: patent US20070037752A1

- Subject Of Test: alanyl aminopeptidases (APN) (Homo sapiens)
- Sequence (P15144 whole entry, species assumed): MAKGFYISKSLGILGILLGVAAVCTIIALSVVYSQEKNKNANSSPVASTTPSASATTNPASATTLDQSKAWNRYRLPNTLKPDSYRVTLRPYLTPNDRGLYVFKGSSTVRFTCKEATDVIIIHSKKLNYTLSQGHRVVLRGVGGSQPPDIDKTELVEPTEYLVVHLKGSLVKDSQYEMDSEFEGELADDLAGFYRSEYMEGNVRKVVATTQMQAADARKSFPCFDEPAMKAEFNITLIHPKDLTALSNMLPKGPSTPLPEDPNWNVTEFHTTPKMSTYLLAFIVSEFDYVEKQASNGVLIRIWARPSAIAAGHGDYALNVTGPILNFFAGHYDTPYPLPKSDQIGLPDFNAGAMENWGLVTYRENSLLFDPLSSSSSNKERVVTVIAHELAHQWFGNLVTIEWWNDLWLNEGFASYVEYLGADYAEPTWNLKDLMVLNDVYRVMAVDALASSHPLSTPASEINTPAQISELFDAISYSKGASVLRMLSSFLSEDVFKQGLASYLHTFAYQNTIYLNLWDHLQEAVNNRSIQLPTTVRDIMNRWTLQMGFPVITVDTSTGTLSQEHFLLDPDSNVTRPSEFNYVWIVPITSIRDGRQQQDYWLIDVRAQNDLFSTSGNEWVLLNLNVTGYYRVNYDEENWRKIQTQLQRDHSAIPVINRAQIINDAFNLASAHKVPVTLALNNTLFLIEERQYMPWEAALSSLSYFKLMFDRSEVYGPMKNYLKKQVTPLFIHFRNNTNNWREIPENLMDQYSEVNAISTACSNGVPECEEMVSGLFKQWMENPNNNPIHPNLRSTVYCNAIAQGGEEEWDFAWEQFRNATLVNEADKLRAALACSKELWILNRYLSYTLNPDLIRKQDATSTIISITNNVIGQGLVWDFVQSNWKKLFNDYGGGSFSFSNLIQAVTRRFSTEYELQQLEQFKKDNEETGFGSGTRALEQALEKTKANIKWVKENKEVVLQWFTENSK
- Test Description: Inhibition of alanyl aminopeptidase enzymatic activity, fluorogenic substrate (Ala)2-rhodamine 110
- Type: biochemical
- Cond: Table 3, starred values = ID50; read-out: ID50 APN (values marked with *)
Note to self: class labels come from recorded IC50, ranges listed here: lo (below 60 µM), med (60 µM to below 100 µM), hi (100 µM or more)

Cn1cccc1CC(=O)N/N=C\c1ccco1 [A3.320] ... hi
COc1ccc(C(=O)NCC(=O)N/N=C/c2ccco2)cc1OC [A3.288] ... med
O=C(CNC(=O)c1ccccc1Br)N/N=C/c1ccco1 [A3.314] ... med
CCOC(=O)c1nc[nH]c1N [A3.007] ... lo
COc1cc(C(=O)NCC(=O)N/N=C\c2ccc(C)o2)cc(OC)c1OC [A3.335] ... hi
CC1=C(C#N)C(=O)N(CC(C)O)C(=O)/C1=C/c1ccc(-c2ccc(Br)cc2)o1 (centres unmarked) [A3.252] ... lo

## Task In plain terms, what class is Nc1ccc2c(c1)C/C(=C\c1ccco1)C2=O [A3.008] ?
## Result lo

## Task In plain terms, what class is COC(=O)c1c(N)ncn1-c1ccccc1 [A3.323] ?
## Result hi

## Task In plain terms, what class is O=c1cc(CSc2nnc(-c3ccco3)c(-c3ccco3)n2)c2ccccc2[nH]1 [A3.289] ?
## Result med

## Task In plain terms, what class is Cn1c(=O)c2c(ncn2CC(=O)N/N=C/C=C\c2ccco2)n(C)c1=O [A3.307] ?
## Result med

## Task In plain terms, what class is O=C(O)CC1S/C(=N/N=C/c2ccco2)NC1=O (centres unmarked) [A3.254] ?
## Result lo

## Task In plain terms, what class is CCc1ccc(N2C(=O)C3C(c4cccc(Cl)c4)OC4(C(=O)c5ccccc5C4=O)C3C2=O)cc1 (centres unmarked) [A3.350] ?
## Result hi
